Assay: NCI Yeast Anticancer Drug Screen. Data for the mec2-1 strain (AID 157)
Conditions: S. cerevisiae mec2-1 strain, at 50.0 µM, stronger effect = higher value
Compounds without any hit were thinned out: in the full panel of roughly 79,000, 15% have a hit.
Short version: growth inhibition at least -10% is Satisfied, less is Not satisfied.

MOLECULE: Nc1ncnc2c1ncn2C1OC(CO)C(NC(=O)C(N)CCC(=O)O)C1O (centres undefined)
ASSIGNED_LABEL: Satisfied
//
MOLECULE: CCCCCCCCC1C(CCCCCCCC(=O)N(CC)CCCOCC)C2(Cl)C(Cl)=C(Cl)C1(Cl)C2(Cl)Cl (centres undefined)
ASSIGNED_LABEL: Satisfied
//
MOLECULE: Nc1nnc(-c2ccccc2)nn1
ASSIGNED_LABEL: Satisfied
//
MOLECULE: CC(=O)Oc1ccccc1[C@H]1CC(=O)C[C@H](c2ccccc2OC(C)=O)C12C(=O)c1ccccc1C2=O
ASSIGNED_LABEL: Not satisfied
//
MOLECULE: Cc1c2cnccc2c(C)c2c1c1ccccc1n2CCCCCC#N
ASSIGNED_LABEL: Satisfied
//
MOLECULE: NCc1ccc(O)c(O)c1
ASSIGNED_LABEL: Satisfied
//
MOLECULE: CCCC(=O)Nc1ccc(N=Nc2ccccc2)cc1
ASSIGNED_LABEL: Satisfied
//
MOLECULE: O=C(CCCCC(=O)N1CCOCC1)N1CCOCC1
ASSIGNED_LABEL: Not satisfied
//
MOLECULE: Cc1cc(C)c(C)c(CC(C)(CI)CI)c1C
ASSIGNED_LABEL: Not satisfied
//
MOLECULE: CC(=O)C(C)c1nc(=S)[nH]c(=S)[nH]1 (centres undefined)
ASSIGNED_LABEL: Satisfied
//
MOLECULE: C[N+]1(C)CCOC(O)(c2ccccc2)C1 (centres undefined)
ASSIGNED_LABEL: Not satisfied
//
MOLECULE: CCOC(=O)C(=CNc1ccc(S(N)(=O)=O)cc1)C(=O)OCC
ASSIGNED_LABEL: Satisfied
//
MOLECULE: Cc1cc(C)c(C(=O)c2cccc(Cl)c2)c(C)c1
ASSIGNED_LABEL: Satisfied
//
MOLECULE: CCOC(Cn1ncc(C#N)c1N)OCC
ASSIGNED_LABEL: Satisfied
//
MOLECULE: CCC(C)NC(=O)C(C)C (centres undefined)
ASSIGNED_LABEL: Satisfied
//
MOLECULE: CC(=O)NC1=N/C(=C\c2ccc(Cl)cc2)C(=O)N1/C=C1\C(=O)Oc2ccccc2C1=O
ASSIGNED_LABEL: Satisfied
//
MOLECULE: Cc1ccc(I)cc1
ASSIGNED_LABEL: Not satisfied
//
MOLECULE: CCOC(=O)C1CSC(c2ccccc2)=N1 (centres undefined)
ASSIGNED_LABEL: Satisfied
//
MOLECULE: C#[N+]CCOP(=O)(OCC1OC(n2cc(C)c(=O)[nH]c2=O)CC1N=[N+]=[N-])O[C@H]1CC[C@@]2(C)C(=CC[C@H]3[C@@H]4CC[C@H](C(C)CCCC(C)C)[C@@]4(C)CC[C@@H]32)C1 (some centres undefined)
ASSIGNED_LABEL: Not satisfied
//
MOLECULE: O=C1C(OCc2ccccc2)=C(c2ccccc2)C(=O)N1c1ccccc1
ASSIGNED_LABEL: Not satisfied
//
MOLECULE: CCN(CC)c1ccc(C)cc1Cl
ASSIGNED_LABEL: Satisfied
//
MOLECULE: CC(C)(C)NC(=O)C12C3C4C1C1C2C3C41C(=O)NC(C)(C)C (centres undefined)
ASSIGNED_LABEL: Satisfied
//
MOLECULE: COc1ccc(OC)c(-c2nc3ccccc3c(=O)[nH]2)c1
ASSIGNED_LABEL: Satisfied
//
MOLECULE: Cc1ccc(S(=O)(=O)N/N=c2/sc3ccccc3n2C)cc1
ASSIGNED_LABEL: Not satisfied
